Entries annotated with measured ΔH, peptide vs BAM1
biological target: BAM1 LRR ectodomain (Arabidopsis thaliana); construct: BAM1 (residues 20–637, AT5G65700); azurocidin or Drosophila BIP signal peptide (secretion signal) (N); made in house; host or cells: Trichoplusia ni Tnao38 insect cells (baculovirus); assay: ITC, peptide titrated into BAM1 ectodomain; assay type: binding; conditions: ITC, peptide into BAM1 ectodomain, 25 °C, pH 5.0; mean ± SD of at least two independent experiments
Sequence (O49545 20-637): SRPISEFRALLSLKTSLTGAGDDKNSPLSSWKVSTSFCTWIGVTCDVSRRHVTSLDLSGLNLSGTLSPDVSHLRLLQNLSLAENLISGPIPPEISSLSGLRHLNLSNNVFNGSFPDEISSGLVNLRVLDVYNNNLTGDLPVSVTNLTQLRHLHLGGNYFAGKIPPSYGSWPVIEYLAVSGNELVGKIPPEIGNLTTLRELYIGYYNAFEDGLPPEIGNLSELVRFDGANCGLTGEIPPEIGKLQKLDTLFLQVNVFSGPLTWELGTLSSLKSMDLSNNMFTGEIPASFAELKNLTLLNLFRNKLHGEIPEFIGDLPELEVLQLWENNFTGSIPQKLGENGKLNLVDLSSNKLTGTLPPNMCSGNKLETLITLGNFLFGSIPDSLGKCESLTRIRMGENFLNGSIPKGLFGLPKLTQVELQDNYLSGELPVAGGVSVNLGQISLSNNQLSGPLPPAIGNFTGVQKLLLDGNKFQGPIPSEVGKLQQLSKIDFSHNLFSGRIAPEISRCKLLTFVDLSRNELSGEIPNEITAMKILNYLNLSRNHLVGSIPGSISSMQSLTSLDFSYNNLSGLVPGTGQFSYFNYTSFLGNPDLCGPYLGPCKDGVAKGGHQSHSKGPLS
Square brackets hold non-standard residues; d marks the D form. Peptide text beside a SMILES is read from it. Hyp = O=C(O)[C@@H]1C[C@@H](O)CN1
All answers are understood in kcal/mol, so give the number only.

Use the examples below as a reference point.
| Compound | Endpoint label | Reported |
| --- | --- | --- |
| CC(C)C[C@H](NC(=O)[C@@H]1CCCN1C(=O)[C@H](CC(N)=O)NC(=O)[C@@H]1C[C@@H](O)CN1C(=O)CNC(=O)[C@H](CO)NC(=O)[C@@H]1CCCN1C(=O)[C@@H]1CCCN1C(=O)[C@H](CC(C)C)NC(=O)[C@@H](N)CCCNC(=N)N)C(=O)N[C@@H](Cc1c[nH]cn1)C(=O)N[C@@H](CC(N)=O)C(=O)O [CLE9^V111P] (H-RLPPSG[Hyp]NPLHN-OH) | ΔH, peptide vs BAM1 | -19 |
| CC(C)C[C@H](NC(=O)[C@@H]1CCCN1C(=O)[C@H](CC(N)=O)NC(=O)[C@@H]1C[C@@H](O)CN1C(=O)CNC(=O)[C@H](CO)NC(=O)[C@@H]1CCCN1C(=O)[C@@H]1CCCN1C(=O)[C@H](CC(C)C)NC(=O)[C@@H]1CCCN1)C(=O)N[C@@H](Cc1c[nH]cn1)C(=O)N[C@@H](CC(N)=O)C(=O)O [CLE9^R109PV111P] (H-PLPPSG[Hyp]NPLHN-OH) | ΔH, peptide vs BAM1 | -3.7 |

Please tell me: ΔH, peptide vs BAM1 of CC[C@H](C)[C@H](NC(=O)[C@@H]1CCCN1)C(=O)N[C@H](C(=O)N1CCC[C@H]1C(=O)N[C@@H](CO)C(=O)NCC(=O)N1C[C@H](O)C[C@H]1C(=O)N[C@@H](CC(N)=O)C(=O)N1CCC[C@H]1C(=O)N[C@@H](CC(C)C)C(=O)N[C@@H](Cc1c[nH]cn1)C(=O)N[C@@H](CC(N)=O)C(=O)O)C(C)C [CLE9^R109PL110I] (H-PIVPSG[Hyp]NPLHN-OH) , system BAM1 LRR ectodomain (Arabidopsis thaliana)?
-27

Moving on to CC(C)C[C@H](NC(=O)[C@@H]1CCCN1)C(=O)N[C@H](C(=O)N1CCC[C@H]1C(=O)N[C@@H](CO)C(=O)NCC(=O)N1C[C@H](O)C[C@H]1C(=O)N[C@@H](CC(N)=O)C(=O)N1CCC[C@H]1C(=O)N[C@@H](CC(C)C)C(=O)N[C@@H](Cc1c[nH]cn1)C(=O)N[C@@H](CC(N)=O)C(=O)O)C(C)C [CLE9^R109P] (H-PLVPSG[Hyp]NPLHN-OH)
-26
